TEST DESCRIPTION: Metabolic stability assay in liver microsomes (mouse)
Type: in vitro ADME
ASSAY CONTEXT: mouse liver microsomes; read-out: clearance rate (metabolic clearance rate)
Can you tell me microsomal CLint at 1 µM for the items I'm about to list?
Output spec: scalar in µL/min/mg, unitless text.

Problem: Fill in the blank: the reported microsomal CLint at 1 µM of O=C(Nc1nc2ccccc2s1)c1cccc2c1CN(c1ccc(CCCOc3ccc(C#CCN4CCNCC4)cc3F)c(C(=O)O)n1)CC2 [Compound C1] is ____.
Solution: 4.9

Problem: Fill in the blank: the reported microsomal CLint at 1 µM of O=C1CCC(N2C(=O)c3cccc(NCCN4CCC(CN5CCN(CC#Cc6ccc(OCCCc7ccc(N8CCc9cccc(C(=O)Nc%10nc%11ccccc%11s%10)c9C8)nc7C(=O)O)c(F)c6)CC5)CC4)c3C2=O)C(=O)N1 (centres unmarked) [APQ2] is ____.
Solution: 4.3

====

TEST DESCRIPTION: Metabolic stability assay in liver microsomes (mouse)
Format: in vitro ADME
ASSAY CONTEXT: mouse liver microsomes 0.5 mg/mL; 1 µM compound; 37°C
Can you tell me T1/2 for the items I'm about to list?
Output spec: scalar in min, unitless text.

Problem: Fill in the blank: the reported T1/2 of [2H]C1([2H])Cc2cccc(C(=O)Nc3nc4ccccc4s3)c2CN1c1ccc(-c2cnn(CC34CC5CC(CC(C5)C3)C4)c2C)c(C(=O)O)n1 [Compound A13D-6] is ____.
Solution: 98.52

Problem: Fill in the blank: the reported T1/2 of [2H]c1c([2H])c([2H])c2sc(NC(=O)c3cccc4c3CN(c3ccc(-c5cnn(CC67CC8CC(CC(C8)C6)C7)c5C)c(C(=O)O)n3)CC4)nc2c1[2H] [Compound A13D-1] is ____.
Solution: 5.19

Problem: Fill in the blank: the reported T1/2 of Cc1c(-c2ccc(N3CCc4cccc(C(=O)Nc5nc6ccccc6s5)c4C3)nc2C(=O)O)cnn1CC12CC3CC(CC(C3)C1)C2 [Compound A-1331852, A-1331852, reference compound] is ____.
Solution: 75.21

Problem: Fill in the blank: the reported T1/2 of [2H]C1([2H])CN(c2ccc(-c3cnn(CC45CC6CC(CC(C6)C4)C5)c3C)c(C(=O)O)n2)Cc2c(C(=O)Nc3nc4ccccc4s3)cccc21 [Compound A13D-5] is ____.
Solution: 78.69

Problem: Fill in the blank: the reported T1/2 of [2H]C1([2H])c2c(C(=O)Nc3nc4ccccc4s3)cccc2C([2H])([2H])C([2H])([2H])N1c1ccc(-c2cnn(CC34CC5CC(CC(C5)C3)C4)c2C)c(C(=O)O)n1 [Compound A13D-2] is ____.
Solution: 76.36

====

Test system: Molt-4 cells
TEST DESCRIPTION: Molt-4 cell killing activity test (CCK-8)
Assay type: cell-based
ASSAY CONTEXT: Homo sapiens, 72 h; Molt-4 cells, three days, CCK-8; read-out: EC50 (Molt-4)
MEASURED ENDPOINT: EC50

Problem: Fill in the blank: the reported EC50 of `CS(=O)(=O)NC(=O)c1nc(N2CCc3cccc(C(=O)Nc4nc5ccccc5s4)c3C2)ccc1CCCOc1ccc(C#CCN2CCN(CC3CCN(c4ccc(N5CCC(=O)NC5=O)cc4)CC3)CC2)cc1F` is ____.
Solution: < 10 nM

Problem: Fill in the blank: the reported EC50 of CC1(C)CCC(c2ccc(Cl)cc2)=C(CN2CCN(c3ccc(C(=O)NS(=O)(=O)c4ccc(N[C@H](CCN5CCOCC5)CSc5ccccc5)c(S(=O)(=O)C(F)(F)F)c4)cc3)CC2)C1 [ABT-263, reference compound] is ____.
Solution: 100 to 1000 nM

Problem: Fill in the blank: the reported EC50 of `Cc1cc([C@H](C(=O)N2C[C@H](O)C[C@H]2C(=O)N[C@@H](CC(=O)N2CCC(CN3CCN(CC#Cc4ccc(OCCCc5ccc(N6CCc7cccc(C(=O)Nc8nc9ccccc9s8)c7C6)nc5C(=O)O)c(F)c4)CC3)CC2)c2ccc(-c3scnc3C)cc2)C(C)C)on1` is ____.
Solution: 10 to 100 nM

Problem: Fill in the blank: the reported EC50 of `COC(=O)c1nc(N2CCc3cccc(C(=O)Nc4nc5ccccc5s4)c3C2)ccc1CCCOc1ccc(C#CCN2CCN(c3ccc(N4CCC(=O)NC4=O)cc3)CC2)cc1F` is ____.
Solution: > 1000 nM

Problem: Fill in the blank: the reported EC50 of `O=C1CCN(c2ccc(N3CCN(CC#Cc4ccc(OCCCc5ccc(N6CCc7cccc(C(=O)Nc8nc9ccccc9s8)c7C6)nc5C(=O)O)c(F)c4)CC3)cc2F)C(=O)N1` is ____.
Solution: < 10 nM

====

Tested on: Molt-4 cells
TEST DESCRIPTION: Molt-4 cell killing activity test (CCK-8)
Assay type: cell-based
ASSAY CONTEXT: Homo sapiens, 72 h; Molt-4 cells, three days, CCK-8; read-out: EC50 (Molt-4)
pEC50: −log10 of the molar value.
MEASURED ENDPOINT: pEC50

Problem: Fill in the blank: the reported pEC50 of Cc1c(-c2ccc(N3CCc4cccc(C(=O)Nc5nc6ccccc6s5)c4C3)nc2C(=O)NCCn2cc(COCCNc3cccc4c3C(=O)N(C3CCC(=O)NC3=O)C4=O)nn2)cnn1CC12CC3CC(CC(C3)C1)C2 (stereo not drawn) is ____.
Solution: > 8.00

Problem: Fill in the blank: the reported pEC50 of `CC(C)(C)[C@H](NC(=O)C1(F)CC1)C(=O)N1C[C@H](O)C[C@H]1C(=O)N[C@@H](CC(=O)N1CCC(CCN2CCN(CC#Cc3ccc(OCCCc4ccc(N5CCc6cccc(C(=O)Nc7nc8ccccc8s7)c6C5)nc4C(=O)O)c(F)c3)CC2)CC1)c1ccc(Cl)cc1` is ____.
Solution: 7.00 to 8.00

Problem: Fill in the blank: the reported pEC50 of `O=C1CCN(c2ccc(N3CCC(CN4CCN(CC#Cc5ccc(OCCCc6ccc(N7CCc8cccc(C(=O)Nc9nc%10ccccc%10s9)c8C7)nc6C(=O)O)c(F)c5)CC4)CC3)cc2F)C(=O)N1` is ____.
Solution: > 8.00

Problem: Fill in the blank: the reported pEC50 of O=C1CCC(N2C(=O)c3cccc(NCCOCCOCCOCCOCCNC(=O)c4nc(N5CCc6cccc(C(=O)Nc7nc8ccccc8s7)c6C5)ccc4CCCOc4ccc(C#CCN5CCNCC5)cc4F)c3C2=O)C(=O)N1 (stereo not drawn) is ____.
Solution: < 6.00

Problem: Fill in the blank: the reported pEC50 of Cc1c(-c2ccc(N3CCc4cccc(C(=O)Nc5nc6ccccc6s5)c4C3)nc2C(=O)NCCn2cc(COCCOCCOCCNc3cccc4c3C(=O)N(C3CCC(=O)NC3=O)C4=O)nn2)cnn1CC12CC3CC(CC(C3)C1)C2 (stereo not drawn) is ____.
Solution: > 8.00

Problem: Fill in the blank: the reported pEC50 of O=C1CCC(N2C(=O)c3cccc(NCCOCCOCCOCCOCCN4CCN(CC#Cc5ccc(OCCCc6ccc(N7CCc8cccc(C(=O)Nc9nc%10ccccc%10s9)c8C7)nc6C(=O)O)c(F)c5)CC4)c3C2=O)C(=O)N1 (stereo not drawn) is ____.
Solution: 7.00 to 8.00

Problem: Fill in the blank: the reported pEC50 of [2H]C1([2H])Cc2cccc(C(=O)Nc3nc4ccccc4s3)c2CN1c1ccc(-c2cnn(CC34CC5CC(CC(C5)C3)C4)c2C)c(C(=O)NCCOCCOCCOCCNc2cccc3c2C(=O)N(C2CCC(=O)NC2=O)C3=O)n1 (stereo not drawn) is ____.
Solution: > 8.00

Problem: Fill in the blank: the reported pEC50 of Cc1c(-c2ccc(N3CCc4cccc(C(=O)Nc5nc6ccccc6s5)c4C3)nc2C(=O)NCCOCCOCCOCCOCCNc2cccc3c2C(=O)N(C2CCC(=O)NC2=O)C3=O)cnn1CC12CC3CC(CC(C3)C1)C2 (stereo not drawn) is ____.
Solution: > 8.00

Problem: Fill in the blank: the reported pEC50 of Cc1c(-c2ccc(N3CCc4cccc(C(=O)Nc5nc6ccccc6s5)c4C3)nc2C(=O)NCCOCCOCCOCCNc2cccc3c2C(=O)N(C2CCC(=O)NC2=O)C3=O)cnn1CC12CC3CC(CC(C3)C1)C2 (stereo not drawn) is ____.
Solution: > 8.00

====

TEST DESCRIPTION: Metabolic stability assay in liver microsomes (human)
Format: in vitro ADME
ASSAY CONTEXT: human liver microsomes 0.5 mg/mL; 1 µM compound; 37°C
Can you tell me T1/2 for the items I'm about to list?

Problem: Fill in the blank: the reported T1/2 of [2H]C1([2H])Cc2cccc(C(=O)Nc3nc4ccccc4s3)c2CN1c1ccc(-c2cnn(CC34CC5CC(CC(C5)C3)C4)c2C)c(C(=O)O)n1 [Compound A13D-6] is ____.
Solution: 27.62 min

Problem: Fill in the blank: the reported T1/2 of [2H]C1([2H])CN(c2ccc(-c3cnn(CC45CC6CC(CC(C6)C4)C5)c3C)c(C(=O)O)n2)Cc2c(C(=O)Nc3nc4ccccc4s3)cccc21 [Compound A13D-5] is ____.
Solution: 25.88 min

Problem: Fill in the blank: the reported T1/2 of [2H]C1([2H])c2c(C(=O)Nc3nc4ccccc4s3)cccc2C([2H])([2H])C([2H])([2H])N1c1ccc(-c2cnn(CC34CC5CC(CC(C5)C3)C4)c2C)c(C(=O)O)n1 [Compound A13D-2] is ____.
Solution: 25.06 min

Problem: Fill in the blank: the reported T1/2 of Cc1c(-c2ccc(N3CCc4cccc(C(=O)Nc5nc6ccccc6s5)c4C3)nc2C(=O)O)cnn1CC12CC3CC(CC(C3)C1)C2 [Compound A-1331852, A-1331852, reference compound] is ____.
Solution: 26.12 min

Problem: Fill in the blank: the reported T1/2 of [2H]c1c([2H])c([2H])c2sc(NC(=O)c3cccc4c3CN(c3ccc(-c5cnn(CC67CC8CC(CC(C8)C6)C7)c5C)c(C(=O)O)n3)CC4)nc2c1[2H] [Compound A13D-1] is ____.
Solution: 5.88 min
